Each entry below carries its recorded pIC50.
# Tested system: XIAP BIR2-3 (Homo sapiens, UniProt P98170, C202A/C213G)
# Construct: His-BIR2-3 (125-356, C202A/C213G, XIAP)
# Sequence (P98170 125-356 C202A/C213G): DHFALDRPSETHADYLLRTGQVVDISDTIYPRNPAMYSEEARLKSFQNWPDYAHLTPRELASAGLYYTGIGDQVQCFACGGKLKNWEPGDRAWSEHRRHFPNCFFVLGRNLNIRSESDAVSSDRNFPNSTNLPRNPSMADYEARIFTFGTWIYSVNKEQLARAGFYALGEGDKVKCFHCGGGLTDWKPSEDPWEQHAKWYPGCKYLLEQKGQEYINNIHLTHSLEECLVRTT
# Assay protocol: XIAP-BIR2-3 dimeric SMAC Peptide Homogeneous Time Resolved Fluorescence (HTRF) Assay
# Assay type: binding
# Condition: 0.5 nM N-His-BIR2-3 (125-356, C202A/C213G, XIAP), 20 nM fluorescein labeled dimeric SMAC peptide; HTRF signal; read-out: XIAP BIR2-3 IC50
Conceptually, pIC50 converts a concentration in mol/L into minus its log10.

CN[C@@H](C)C(=O)N[C@H](C(=O)N1Cc2cc([C@H]3C[C@@H](C(=O)N[C@@H]4CCCc5ccccc54)N(C(=O)[C@@H](NC(=O)[C@H](C)NC)C(C)(C)C)C3)ccc2C[C@H]1C(=O)N[C@H](CO)Cc1ccccc1)C(C)(C)C | 8.15

Now consider a different molecule.
pIC50 for "CN[C@@H](C)C(=O)N[C@H](C(=O)N1C[C@@H](c2ccc3c(c2)CN(C(=O)[C@@H](NC(=O)[C@H](C)NC)C(C)(C)C)[C@H](C(=O)N[C@@H]2CCCc4ccccc42)C3)C[C@H]1C(=O)N[C@@H](Cc1ccccc1)C(=O)N(C1CC1)C1CC1)C(C)(C)C" is 8.52

----------
# Tested system: XIAP BIR3 (Homo sapiens)
# Construct: His-BIR3 (241-356, XIAP)
# Sequence (P98170 241-356): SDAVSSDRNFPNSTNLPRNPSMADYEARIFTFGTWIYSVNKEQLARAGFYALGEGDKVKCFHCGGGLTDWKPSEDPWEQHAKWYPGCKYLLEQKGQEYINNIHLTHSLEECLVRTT
# Assay protocol: XIAP-BIR3/SMAC Homogeneous Time Resolved Fluorescence (HTRF) Assay
# Type: binding
# Condition: 1 nM N-His-BIR3 (241-356, XIAP), 5 nM fluorescein labeled SMAC peptide; HTRF signal; read-out: XIAP BIR3 IC50
API: label(entry) gives fulfilled if the entry's IC50 is strictly smaller than 10 nM; on equality or larger values it gives not fulfilled.

# example entries with known answers
CN[C@@H](C)C(=O)N[C@H](C(=O)N1C[C@@H](c2ccc3c(c2)CN(C(=O)[C@@H](NC(=O)[C@H](C)NC)C(C)(C)C)[C@H](C(=O)N[C@@H]2CCCc4ccccc42)C3)C[C@H]1C(=O)N[C@@H](Cc1ccccc1)C(=O)Nc1ccc(-n2cncn2)cc1)C(C)(C)C [Example 65] | fulfilled
CN[C@@H](C)C(=O)N[C@H](C(=O)N1C[C@@H](c2ccc3c(c2)CN(C(=O)[C@@H](NC(=O)[C@H](C)NC)C(C)(C)C)[C@H](C(=O)N[C@@H]2CCCc4ccccc42)C3)C[C@H]1C(=O)N[C@@H](Cc1ccccc1)C(=O)N(C)CCC(C)C)C(C)(C)C [Example 53] | not fulfilled
CN[C@@H](C)C(=O)N[C@H](C(=O)N1CC(c2ccc3c(c2)CN(C(=O)[C@@H](NC(=O)[C@H](C)NC)C(C)(C)C)[C@H](C(=O)NC2CCCc4ccccc42)C3)C[C@H]1C(=O)NC(Cc1ccccc1)C(=O)N(C)Cc1ccccc1)C(C)(C)C (stereo in doubt) [Example 72] | not fulfilled
CCNC(=O)[C@H](Cc1ccccc1)NC(=O)[C@@H]1C[C@H](c2ccc3c(c2)CN(C(=O)[C@@H](NC(=O)[C@H](C)NC)C(C)(C)C)[C@H](C(=O)N[C@@H]2CCCc4ccccc42)C3)CN1C(=O)[C@@H](NC(=O)[C@H](C)NC)C(C)(C)C [Example 51] | not fulfilled
CN[C@@H](C)C(=O)N[C@H](C(=O)N1C[C@@H](c2ccc3c(c2)CN(C(=O)[C@@H](NC(=O)[C@H](C)NC)C(C)(C)SCC(=O)NC(CO)CO)[C@H](C(=O)N[C@@H]2CCCc4ccccc42)C3)C[C@H]1C(=O)N[C@@H]1CCCc2ccccc21)C(C)(C)C [Example 31] | not fulfilled

INPUT: Quick check: does CN[C@@H](C)C(=O)N[C@H](C(=O)N1C[C@@H](c2ccc3c(c2)CN(C(=O)[C@@H](NC(=O)[C@H](C)NC)C(C)(C)C)[C@H](C(=O)N[C@@H]2CCCc4ccccc42)C3)C[C@H]1C(=O)N[C@H](COC)Cc1ccccc1)C(C)(C)C [Example 75] have IC50 under 10 nM?
OUTPUT: not fulfilled

INPUT: Quick check: does CCC(CC)[C@H](NC(=O)[C@H](CC)NC)C(=O)N1C[C@@H](NC(=O)c2ccc3c(c2)CN(C(=O)[C@@H](NC(=O)[C@H](C)NC)C(C)(C)C)[C@H](C(=O)N[C@@H]2CCCc4ccccc42)C3)C[C@H]1C(=O)N[C@@H]1CCCc2ccccc21 [Example 16] have IC50 under 10 nM?
OUTPUT: not fulfilled

INPUT: Quick check: does CN[C@@H](C)C(=O)N[C@H](C(=O)N1C[C@@H](NC(=O)c2ccc3c(c2)CN(C(=O)[C@@H](NC(=O)[C@H](C)NC)C24CC5CC(CC(C5)C2)C4)[C@H](C(=O)NC2CCCc4ccccc42)C3)C[C@H]1C(=O)NC1CCCc2ccccc21)C(C)(C)C (stereo partly drawn) [Example 10] have IC50 under 10 nM?
OUTPUT: not fulfilled

INPUT: Quick check: does CN[C@@H](C)C(=O)N[C@H](C(=O)N1Cc2cc([C@H]3C[C@@H](C(=O)N[C@@H]4CCCc5ccccc54)N(C(=O)[C@@H](NC(=O)[C@H](C)NC)C(C)(C)C)C3)ccc2C[C@H]1C(=O)N[C@H](CO)c1ccccc1F)C(C)(C)C [Example 35] have IC50 under 10 nM?
OUTPUT: fulfilled

----------
# Tested system: XIAP BIR2-3 (Homo sapiens, UniProt P98170, C202A/C213G)
# Construct: His-BIR2-3 (125-356, C202A/C213G, XIAP)
# Assay protocol: XIAP-BIR2-3 dimeric SMAC Peptide Homogeneous Time Resolved Fluorescence (HTRF) Assay
# Format: binding
Quantity name: pIC50
Conceptually, pIC50 converts a concentration in mol/L into minus its log10.

Below, each entry is followed by its recorded pIC50 result.
CN[C@@H](C)C(=O)N[C@H](C(=O)N1C[C@@H](c2ccc3c(c2)CN(C(=O)[C@@H](NC(=O)[C@H](C)NC)C(C)(C)C)[C@H](C(=O)N[C@@H]2CCCc4ccccc42)C3)C[C@H]1C(=O)N[C@@H](Cc1ccccc1)C(=O)Nc1ccccc1)C(C)(C)C | 8.89
CN[C@@H](C)C(=O)N[C@H](C(=O)N1C[C@@H](c2ccc3c(c2)CN(C(=O)[C@@H](NC(=O)[C@H](C)NC)C(C)(C)C)[C@H](C(=O)N[C@@H]2CCCc4ccccc42)C3)C[C@H]1C(=O)N[C@@H](Cc1ccccc1)C(=O)OC)C(C)(C)C | 8.60
CN[C@@H](C)C(=O)N[C@H](C(=O)N1Cc2cc([C@H]3C[C@@H](C(=O)N[C@@H](Cc4ccccc4)C(=O)OC)N(C(=O)[C@@H](NC(=O)[C@H](C)NC)C(C)(C)C)C3)ccc2C[C@H]1C(=O)N[C@@H](Cc1ccccc1)C(=O)OC)C(C)(C)C | 8.21

pIC50 for "CN[C@@H](C)C(=O)N[C@H](C(=O)N1Cc2cc(NC(=O)[C@H]3C[C@@H](C(=O)N[C@@H]4CCCc5ccccc54)N(C(=O)[C@@H](NC(=O)[C@H](C)NC)C(C)(C)C)C3)ccc2C[C@H]1C(=O)N[C@@H]1CCCc2ccccc21)C(C)(C)C" is 9.00

----------
Each entry below carries its recorded IC50.
# Tested system: XIAP BIR2-3 (Homo sapiens, UniProt P98170, C202A/C213G)
# Construct: His-BIR2-3 (125-356, C202A/C213G, XIAP)
# Assay protocol: XIAP-BIR2-3 dimeric SMAC Peptide Homogeneous Time Resolved Fluorescence (HTRF) Assay
# Format: binding
# Condition: 0.5 nM N-His-BIR2-3 (125-356, C202A/C213G, XIAP), 20 nM fluorescein labeled dimeric SMAC peptide; HTRF signal; read-out: XIAP BIR2-3 IC50
Write down the numeric answer in nM and omit the unit.

Below, each entry is followed by its recorded IC50 result.
CN[C@@H](C)C(=O)N[C@H](C(=O)N1CC(c2ccc3c(c2)CN(C(=O)[C@@H](NC(=O)[C@H](C)NC)C(C)(C)C)[C@H](C(=O)NC2CCCc4ccccc42)C3)C[C@H]1C(=O)NC(Cc1ccccc1)C(=O)NCc1ccc(OC)cc1)C(C)(C)C (stereo in doubt) | 2.2
CCN[C@@H](C)C(=O)N[C@H](C(=O)N1Cc2cc(C(=O)N[C@H]3C[C@@H](C(=O)N[C@@H]4CCCc5ccccc54)N(C(=O)[C@@H](NC(=O)[C@H](C)NC)C(C)(C)C)C3)ccc2C[C@H]1C(=O)N[C@@H]1CCCc2ccccc21)C(CC)CC | 4
CN[C@@H](C)C(=O)N[C@H](C(=O)N1C[C@@H](c2ccc3c(c2)CN(C(=O)[C@@H](NC(=O)[C@H](C)NC)C(C)(C)C)[C@H](C(=O)N[C@@H]2CCCc4ccccc42)C3)C[C@H]1C(=O)N[C@@H](Cc1ccccc1)C(=O)Nc1nncs1)C(C)(C)C | 1.2
CN[C@@H](C)C(=O)N[C@H](C(=O)N1C[C@@H](c2ccc3c(c2)CN(C(=O)[C@@H](NC(=O)[C@H](C)NC)C(C)(C)C)[C@H](C(=O)N[C@@H]2CCCc4ccccc42)C3)C[C@H]1C(=O)N[C@@H](Cc1ccccc1)C(=O)N(C)CCc1ccccn1)C(C)(C)C | 2.9
CN[C@@H](C)C(=O)N[C@H](C(=O)N1Cc2cc([C@H]3C[C@@H](C(=O)N[C@@H](Cc4ccc5ccccc5c4)C(=O)O)N(C(=O)[C@@H](NC(=O)[C@H](C)NC)C(C)(C)C)C3)ccc2C[C@H]1C(=O)N[C@@H](Cc1ccc2ccccc2c1)C(=O)O)C(C)(C)C | 26.2

IC50 for CN[C@@H](C)C(=O)N[C@H](C(=O)N1C[C@@H](NC(=O)c2ccc3c(c2)CN(C(=O)[C@@H](NC(=O)[C@H](C)NC)C24CC5CC(CC(O)(C5)C2)C4)[C@H](C(=O)NC2CCCc4ccccc42)C3)C[C@H]1C(=O)NC1CCCc2ccccc21)C(C)(C)C (stereo partly shown) is 2.6

IC50 for "CN[C@@H](C)C(=O)N[C@H](C(=O)N1Cc2cc([C@H]3C[C@@H](C(=O)N[C@@H]4CCCc5ccccc54)N(C(=O)[C@@H](NC(=O)[C@H](C)NC)C(C)(C)C)C3)ccc2C[C@H]1C(=O)N[C@H](CO)c1ccccc1F)C(C)(C)C" is 1.3
